target: bovine XOD (Bos taurus, UniProt P80457); construct: Bovine milk XOD was procured from Calbiochem (La Jolla, CA, USA); purchased Calbiochem (La Jolla, CA, USA); host or cells: bovine milk; test: IC50 determination, XOD-catalyzed hydroxylation (uric acid at 293 nm, 6TUA at 350 nm); type: biochemical; conditions: 10 μM xanthine; 2.8 U/ml bovine XOD; pH 7.4; ± SEM; read-out: IC50, XOD inhibition, substrate xanthine (xanthine to uric acid)
Sequence (P80457 whole entry): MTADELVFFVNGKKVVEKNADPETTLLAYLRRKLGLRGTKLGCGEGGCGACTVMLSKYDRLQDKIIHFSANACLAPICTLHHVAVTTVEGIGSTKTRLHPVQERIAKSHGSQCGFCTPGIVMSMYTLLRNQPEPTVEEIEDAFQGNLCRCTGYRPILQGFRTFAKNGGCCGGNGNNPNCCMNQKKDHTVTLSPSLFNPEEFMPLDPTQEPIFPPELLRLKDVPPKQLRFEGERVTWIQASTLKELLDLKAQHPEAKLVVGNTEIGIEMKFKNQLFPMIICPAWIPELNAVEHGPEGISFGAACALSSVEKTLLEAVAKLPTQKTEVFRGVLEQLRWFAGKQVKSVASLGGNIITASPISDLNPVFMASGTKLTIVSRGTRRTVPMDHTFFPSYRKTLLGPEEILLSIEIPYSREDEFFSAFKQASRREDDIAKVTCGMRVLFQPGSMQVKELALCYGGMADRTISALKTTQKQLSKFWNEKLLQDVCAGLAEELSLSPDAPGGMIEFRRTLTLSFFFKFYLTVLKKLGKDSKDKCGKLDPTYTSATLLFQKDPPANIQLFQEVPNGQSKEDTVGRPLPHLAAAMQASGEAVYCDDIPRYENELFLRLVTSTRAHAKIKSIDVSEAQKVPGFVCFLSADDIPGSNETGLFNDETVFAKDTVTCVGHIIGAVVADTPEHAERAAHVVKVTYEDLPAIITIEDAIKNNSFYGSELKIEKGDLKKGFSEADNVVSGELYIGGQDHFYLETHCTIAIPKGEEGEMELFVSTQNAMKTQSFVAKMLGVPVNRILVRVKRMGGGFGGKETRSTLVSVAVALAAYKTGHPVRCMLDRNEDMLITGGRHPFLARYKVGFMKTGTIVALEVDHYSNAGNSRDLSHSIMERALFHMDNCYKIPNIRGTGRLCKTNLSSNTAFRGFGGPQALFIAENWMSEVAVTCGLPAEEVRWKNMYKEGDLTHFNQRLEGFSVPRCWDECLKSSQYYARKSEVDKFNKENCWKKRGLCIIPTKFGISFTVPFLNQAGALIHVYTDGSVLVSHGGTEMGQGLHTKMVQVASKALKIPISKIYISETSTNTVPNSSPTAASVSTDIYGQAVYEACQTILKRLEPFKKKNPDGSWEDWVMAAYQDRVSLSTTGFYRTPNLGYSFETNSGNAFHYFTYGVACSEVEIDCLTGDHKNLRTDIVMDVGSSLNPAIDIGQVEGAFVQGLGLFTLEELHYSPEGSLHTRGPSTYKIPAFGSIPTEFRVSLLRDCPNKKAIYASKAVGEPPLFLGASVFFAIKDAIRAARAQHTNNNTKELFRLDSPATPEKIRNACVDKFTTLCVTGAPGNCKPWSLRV
ASSAY ENDPOINT: IC50 (µM)
Answers are plain numbers, in µM.

{"COMPOUND": "Nc1nc2[nH]c(S)nc2c(=O)[nH]1 [AHMP, 2-amino-6-hydroxy-8-mercaptopurine]", "IC50, µM": 17.7}

Please state, for each entry, its recorded IC50.
1. Nc1ncnc2[nH]ncc12
2. Nc1nc2nc[nH]c2c(=S)[nH]1

Reply:
[20.8, 16.4]
